# System: PC26
# method notes: qHTS profiling for inhibitors of Plasmodium falciparum proliferation (AID 504749); further: nearly all actives have a fitted effect of over 60% in size
# test context: P. falciparum in erythrocytes, SYBR Green DNA, 72 h; series mostly up to 28.7 µM
Inconclusive results are not listed. The source made the active and inactive calls. The call rests on the fitted dose curve; in most records, active means well fitted inhibition curve with a large enough effect; inconclusive means small, poorly fitted or top-dose-only effect; inactive means flat fitted curve, though single readings scatter.
# valid calls are true (1) for active, false (0) for inactive; nothing else

## Task What did this assay record as the result for `O=C1C(I)=CC(=C(c2cc(I)c(O)c(I)c2)c2ccccc2C(=O)O)C=C1I` ?
## Result false (0)

## Task // outcome(item) with item = CCCCCCCCCCCC(=O)OCC(O)C1OCC(O)C1O (stereo not drawn)
## Result false (0)

## Task Please state the recorded outcome for this compound: COc1cc2c(cc1O)CCN[C@@]21CS[C@H]2c3c(OC(C)=O)c(C)c4c(c3C(COC1=O)N1C2C2c3c(cc(C)c(OC)c3O)CC([C@@H]1O)N2C)OCO4 (stereo partly drawn)
## Result true (1)

###

# method notes: NFAT Signaling Pathway (AID 444);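 further: carbachol stimulus at about its EC50 of 1 µM final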
# test context: Jurkat NFAT-bla M1, carbachol, beta-lactamase ratio, 5 h; at 17.2 µM (top of the series) unless noted
Records with an inconclusive call do not appear. Activity calls are given as the source filed them. The call rests on the fitted dose curve; in most records, active means well fitted curve in either direction with a large enough effect (not every such curve was filed as active); inconclusive means small, poorly fitted or top-dose-only effect, or another doubt; inactive means flat fitted curve, though single readings scatter.
Select the matching outcome among active, inactive

## Task Please state the recorded outcome for this compound: `CCCCCCOC(=O)CCn1[nH]c(=O)c2ccccc2c1=O`
## Result inactive

## Task GET /call?item= CCC1(C)Cc2c(sc3[nH]c(=O)[nH]c(=O)c23)CS1 (centres undefined) returns the recorded outcome of this test.
## Result inactive

## Task Could you please tell me the result logged for `Cc1cccc(-n2ncc3c(NCCN4CCOCC4)ncnc32)c1` in this assay?
## Result inactive

## Task Returns: the outcome recorded for O=C1C2ON(c3ccccc3)C(c3ccncc3)C2C(=O)N1c1ccc(Br)cc1 (centres undefined) in this assay.
## Result inactive

## Task Which outcome was entered for the compound `COc1ccc(-c2nn3c(-c4ccccn4)nnc3s2)cc1OC` in this test?
## Result inactive

## Task Name the outcome recorded for `O=c1c(C=NCCCn2ccnc2)c(-c2ccccc2)[nH]n1-c1nc2ccccc2s1` in the assay.
## Result inactive

## Task # fetch the recorded call for `COCCNc1oc(-c2ccc(Cl)cc2)nc1C#N` here
## Result inactive

## Task So what was the verdict on `O=C(CN1C(=O)c2ccccc2S1(=O)=O)c1ccccc1` in this test?
## Result inactive

## Task Recorded test outcome, item `COc1ccc(C(=O)N2CCC(N3CCN(c4ccccc4)CC3)CC2)cc1OC`
## Result inactive

## Task Recorded test outcome, item Cc1ccc(C(=O)CSC2=C(C#N)C(c3ccco3)C3=C(CCCC3=O)N2)cc1 (centres undefined)
## Result inactive

## Task Could you please tell me the result logged for `N#Cc1c(N2CCOCC2)nc(-c2ccco2)c2c1CCCC2` in this assay?
## Result inactive

## Task Query: recorded result category for COc1ccc(C2CC(C(F)(F)F)n3ncc(C(=O)Nc4cccc(O)c4)c3N2)cc1OC (centres undefined) in this test
## Result inactive

## Task Per the records of this test, what outcome belongs to CN(C)CC(O)COc1cccc(OCC(O)CN(C)C)c1 (centres undefined) ?
## Result inactive

## Task Lab log entry: CCCOc1ccc(N2C(=O)CC(N(Cc3ccc(S(N)(=O)=O)cc3)C(=O)CC)C2=O)cc1 (centres undefined) — outcome as called in the assay?
## Result inactive

## Task What did this assay record as the result for `Cn1c(=O)c2c(nc(NCc3ccco3)n2Cc2ccccc2Cl)n(C)c1=O` ?
## Result inactive

## Task Assay outcome for COCCCNC(=O)C(C#N)c1nc2ccccc2nc1N1CCCC1 (centres undefined) : what was it?
## Result inactive

## Task Can you look up the reported call for `CCCc1cc(=O)oc2c(CN3CCCC3)c(O)ccc12` for me?
## Result inactive

## Task Recorded test call requested for `O=c1[nH]cnc2cc(-c3ccccc3)sc12`
## Result inactive

## Task What classification did `NCCC[C@@](N)(C(=O)O)C(F)F` end up with in this test?
## Result inactive

## Task Which outcome was assigned to `CCOC(=O)CSc1nc(NC#N)nc(N(CC)CC)n1` in this test?
## Result inactive

## Task # outcome recorded in this test, key = `COc1cc(/C=C\C(=O)N2CCC=CC2=O)cc(OC)c1OC`
## Result active

## Task Could you kindly confirm the outcome this assay logged for `O=c1[nH]cnc2c1cnn2Cc1ccccc1` ?
## Result inactive

## Task Would you mind telling me which call this test gave `COC(=O)CC1=NC(=O)CS1` ?
## Result inactive

## Task Recorded test call requested for `CCOC(=O)c1c(NC(=O)CN2CCOCC2)sc2c1CC(C)(C)OC2`
## Result inactive

The origin of these recorded values is PubChem BioAssay (NCATS).
